Kindly state IC50 for each of the entries shown.
measured on: p38α (Homo sapiens, UniProt Q16539)
Sequence (Q16539 whole entry): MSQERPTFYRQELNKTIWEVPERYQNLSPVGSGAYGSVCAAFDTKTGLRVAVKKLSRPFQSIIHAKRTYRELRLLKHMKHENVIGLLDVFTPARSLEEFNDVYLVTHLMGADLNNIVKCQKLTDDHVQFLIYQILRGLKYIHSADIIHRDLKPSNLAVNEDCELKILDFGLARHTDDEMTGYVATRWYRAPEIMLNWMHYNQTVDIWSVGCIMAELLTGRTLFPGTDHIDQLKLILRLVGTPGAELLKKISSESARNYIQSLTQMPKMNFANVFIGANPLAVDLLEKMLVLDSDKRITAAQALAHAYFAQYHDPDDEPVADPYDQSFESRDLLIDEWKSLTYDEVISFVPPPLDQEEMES
assay overview: p38α/MK2 cascade assay
Type: biochemical
run conditions: Table 1; inhibitors preincubated with p38α for 40 minutes; phosphorylation of Hsp27 peptide by MK-2, Caliper LabChip 3000; read-out: p38a/MK2 Cascade 40 min Pre-Incuabtion (% Inhibition): IC50
Respond numerically; units are nM and should not be typed.

IC50 measured on COc1cccc(Cn2c(C)cc(OCc3ccccc3CNC(=O)Nc3cc(C(C)(C)C)nn3-c3cccc(OC)c3)c(Cl)c2=O)c1 = 5.8

IC50 measured on COc1ccc(Cn2c(C)cc(OCc3ccccc3CNC(=O)Nc3cc(C(C)(C)C)nn3-c3ccc(O)cc3)cc2=O)cc1 = 117

IC50 measured on COc1cccc(Cn2c(C)cc(OCc3ccccc3CNC(=O)Nc3cc(C(C)(C)C)nn3-c3cccc(OCCOC4CCCCO4)c3)cc2=O)c1 (stereo not shown) = 142

IC50 measured on COc1ccc(Cn2c(C)cc(OCc3ccccc3CNC(=O)Nc3cc(C(C)(C)C)nn3-c3ccc(C)cc3)c(Br)c2=O)c(OC)c1 = 15.4

IC50 measured on Cc1ccc(C(=O)NC(C)C(N)=O)cc1-n1c(C)cc(OCc2ccccc2CNC(=O)Nc2cc(C(C)(C)C)nn2-c2ccc(O)c(Cl)c2)c(Cl)c1=O (stereo in doubt) = 2.5

IC50 measured on COc1cccc(Cn2c(C)cc(OCc3ccccc3CNC(=O)Nc3cc(C(C)(C)C)nn3-c3ccc(O)cc3)c(Cl)c2=O)c1 = 5.8

IC50 measured on COc1cccc(-n2nc(C(C)(C)C)cc2NC(=O)NCc2ccccc2COc2cc(C)n(Cc3ccccc3)c(=O)c2Br)c1 = 6.38

IC50 measured on COc1cccc(Cn2c(C)cc(OCc3ccc(F)cc3CNC(=O)Nc3cc(C(C)(C)C)nn3-c3cccc(OCCO)c3)c(Cl)c2=O)c1 = 7.3

IC50 measured on COc1ccc(Cn2c(C)cc(OCc3ccccc3CNC(=O)Nc3cc(C(C)(C)C)nn3-c3ccc(O)c(Cl)c3)c(Cl)c2=O)cc1 = 4.6

IC50 measured on CNC(=O)CNC(=O)c1ccc(C)c(-n2c(C)cc(OCc3ccccc3CNC(=O)Nc3cc(C(C)(C)C)nn3-c3ccc(Cl)c(O)c3)c(Cl)c2=O)c1 = 1.7

IC50 measured on CCc1c(OCc2ccccc2CNC(=O)Nc2cc(C(C)(C)C)nn2-c2ccc(C)cc2)ncn(Cc2ccc(OC)cc2)c1=O = 16.3

IC50 measured on COc1cccc(Cn2c(C)cc(OCc3ccc(F)cc3CNC(=O)Nc3cc(C(C)(C)C)nn3-c3ccc(O[Si](C)(C)C(C)(C)C)c(Cl)c3)c(Cl)c2=O)c1 = 116

IC50 measured on Cc1cc(OCc2ccccc2CNC(=O)Nc2cc(C(C)(C)C)nn2-c2ccccc2)c(Br)c(=O)n1Cc1ccccc1 = 4.52

----------
measured on: p38α (Homo sapiens, UniProt Q16539)
assay overview: p38α/MK2 cascade assay
Type: biochemical
run conditions: Table 1; inhibitors preincubated with p38α for 40 minutes; phosphorylation of Hsp27 peptide by MK-2, Caliper LabChip 3000; read-out: p38a/MK2 Cascade 40 min Pre-Incuabtion (% Inhibition): IC50
pIC50: −log10 of the molar value.
Parameter threshold = 8. Response is Met when pIC50 meets or exceeds it, else Not met.

// query hey, is pIC50 for this one >= 8? COC(=O)c1ccc(C)c(-n2c(C)cc(OCc3ccc(F)cc3CNC(=O)Nc3cc(C(C)(C)C)nn3-c3cccc(OC)c3)c(Cl)c2=O)c1
// result Met

// query hey, is pIC50 for this one >= 8? COc1cccc(Cn2c(C)cc(OCc3ccccc3CNC(=O)Nc3cc(C(C)(C)C)nn3-c3cccc(OCCO)c3)cc2=O)c1
// result Not met

// query hey, is pIC50 for this one >= 8? COc1cccc(Cn2c(C)cc(OCc3ccc(F)cc3CNC(=O)Nc3cc(C(C)(C)C)nn3-c3cccc(OCCO)c3)cc2=O)c1
// result Not met

// query hey, is pIC50 for this one >= 8? COc1ccc(Cn2c(C)cc(OCc3ccccc3CNC(=O)Nc3cc(C(C)(C)C)nn3-c3ccc(O)c(Cl)c3)cc2=O)cc1
// result Not met

// query hey, is pIC50 for this one >= 8? COc1ccc(Cn2c(C)cc(OCc3ccccc3CNC(=O)Nc3cc(C(C)(C)C)nn3-c3cccc(OC)c3)c(Br)c2=O)cc1
// result Met

// query hey, is pIC50 for this one >= 8? COc1ccc(Cn2c(C)cc(OCc3ccccc3CNC(=O)Nc3cc(C4CC4)nn3-c3ccccc3)c(Br)c2=O)cc1
// result Not met

// query hey, is pIC50 for this one >= 8? CNC(=O)CNC(=O)c1ccc(C)c(-n2c(C)cc(OCc3ccccc3CNC(=O)Nc3cc(C(C)(C)C)nn3-c3ccc(O)c(Cl)c3)c(Cl)c2=O)c1
// result Met

----------
Kindly state IC50 for each of the entries shown.
measured on: p38α (Homo sapiens, UniProt Q16539)
assay overview: p38α/MK2 cascade assay
Type: biochemical
run conditions: Table 2; same p38α/MK2 cascade assay; 40 minutes preincubation; read-out: p38a/MK2 Cascade 40 min Pre-Incuabtion (% Inhibition): IC50
Respond numerically; units are nM and should not be typed.

IC50 measured on COc1cccc(Cn2c(C)cc(OCc3ccccc3CNC(=O)Nc3cc(C(C)(C)C)nn3-c3ccc(O)c(Cl)c3)c(Cl)c2=O)c1 = 8

IC50 measured on COC(=O)c1ccc(C)c(-n2c(C)cc(OCc3ccccc3CNC(=O)Nc3cc(C(C)(C)C)nn3-c3ccc(Cl)c(O)c3)c(Cl)c2=O)c1 = 10.5

IC50 measured on COC(=O)c1ccc(C)c(-n2c(C)cc(OCc3ccccc3CNC(=O)Nc3cc(C(C)(C)C)nn3-c3cccc(OCCO)c3)c(Cl)c2=O)c1 = 3.8

IC50 measured on Cc1ccc(C(=O)NCC(N)=O)cc1-n1c(C)cc(OCc2ccccc2CNC(=O)Nc2cc(C(C)(C)C)nn2-c2ccc(O)c(Cl)c2)c(Cl)c1=O = 1.5

----------
measured on: p38α (Homo sapiens, UniProt Q16539)
assay overview: p38α/MK2 cascade assay
Format: biochemical
run conditions: Table 2; same p38α/MK2 cascade assay; 40 minutes preincubation; read-out: p38a/MK2 Cascade 40 min Pre-Incuabtion (% Inhibition): IC50
Criterion: IC50 strictly under 10 nM. Met: condition met. Not met: condition not met.

// query Please state whether IC50 is below 10 nM for COc1ccccc1Cn1c(C)cc(OCc2ccccc2CNC(=O)Nc2cc(C(C)(C)C)nn2-c2ccc(O)c(Cl)c2)c(C)c1=O
// result condition not met

// query Please state whether IC50 is below 10 nM for COc1cc(Cn2c(C)cc(OCc3ccccc3CNC(=O)Nc3cc(C(C)(C)C)nn3-c3ccc(Cl)c(O)c3)c(Cl)c2=O)ccc1Cl
// result condition not met

// query Please state whether IC50 is below 10 nM for COc1ccc(Cn2c(C)cc(OCc3ccccc3CNC(=O)Nc3cc(C(C)(C)C)nn3-c3ccc(O)cc3)c(C)c2=O)cc1C#N
// result condition met

// query Please state whether IC50 is below 10 nM for Cc1ccc(C(=O)NCC(O)CO)cc1-n1c(C)cc(OCc2ccccc2CNC(=O)Nc2cc(C(C)(C)C)nn2-c2ccc(O)cc2)c(Cl)c1=O (stereo not drawn)
// result condition met

// query Please state whether IC50 is below 10 nM for COc1ccc(Cn2c(C)cc(OCc3ccccc3CNC(=O)Nc3cc(C(C)(C)C)nn3-c3ccc(O)c(Cl)c3)c(C)c2=O)cc1C#N
// result condition met

// query Please state whether IC50 is below 10 nM for COc1ccc(Cn2c(C)cc(OCc3ccccc3CNC(=O)Nc3cc(C(C)(C)C)nn3-c3ccccc3)c(C)c2=O)c(OC)c1
// result condition met

----------
measured on: p38α (Homo sapiens)
assay overview: p38α/MK2 cascade assay
Format: biochemical
run conditions: Table 1; inhibitors preincubated with p38α for 40 minutes; phosphorylation of Hsp27 peptide by MK-2, Caliper LabChip 3000; read-out: p38a/MK2 Cascade 40 min Pre-Incuabtion (% Inhibition): IC50
Kindly state IC50 for each of the entries shown.
Respond numerically; units are nM and should not be typed.

IC50 measured on COc1ccc(Cn2c(C)cc(OCc3ccccc3CNC(=O)Nc3cc(C(C)(C)C)nn3-c3ccccc3)c(Br)c2=O)c(OC)c1 = 15.5

IC50 measured on Cc1cc(OCc2ccccc2CNC(=O)Nc2cc(C(C)(C)C)nn2-c2ccc(F)cc2F)c(Br)c(=O)n1Cc1ccccc1 = 8.19

IC50 measured on Cc1ccc(-n2nc(C(C)(C)C)cc2NC(=O)NCc2ccccc2COc2cc(C)n(Cc3ccccc3)c(=O)c2C)cc1 = 12.1

IC50 measured on COc1ccc(Cn2c(C)cc(OCc3ccccc3CNC(=O)Nc3cc(C(C)(C)C)nn3-c3ccc(O)cc3)c(Cl)c2=O)cc1Cl = 7.5

IC50 measured on CCc1c(OCc2ccccc2CNC(=O)Nc2cc(C(C)(C)C)nn2-c2cccc(F)c2)ncn(Cc2ccc(OC)cc2)c1=O = 10.1

IC50 measured on COc1ccc(Cn2c(C)cc(OCc3ccccc3CNC(=O)Nc3cc(C(C)(C)C)nn3-c3ccc(Cl)c(O)c3)c(Cl)c2=O)cc1Cl = 7.9

IC50 measured on COc1cccc(-n2nc(C(C)(C)C)cc2NC(=O)NCc2ccccc2COc2cc(C)n(Cc3ccc(OC)cc3OC)c(=O)c2Br)c1 = 11.9

IC50 measured on COc1cccc(Cn2c(C)cc(OCc3ccccc3CNC(=O)Nc3cc(C(C)(C)C)nn3-c3cccc(O)c3)c(Cl)c2=O)c1 = 6.2
